Data origin, for the record: paper PMC10714399

tested on: S. aureus ATCC 25923 (methicillin-susceptible); assay: In vitro antibacterial activity, MIC (UCL), MSSA; type: cell-based, Staphylococcus aureus
ENDPOINT LABEL: MSSA MIC

[[record]]
compound = "N#Cc1ccc(-c2c(-c3ccccn3)nc3cnccn23)cc1 [compound 1106]"
meas_value = "> 32 µg/mL"


[ask] # MSSA MIC lookup, item Cc1ccc2nc(-c3ccccc3)c(CNc3cccc(C(F)(F)F)c3)n2c1 [compound 1028]
[reply] > 32 µg/mL

[ask] # MSSA MIC lookup, item Clc1ccn2c(-c3ccc4occc4c3)c(-c3ccccn3)nc2c1 [compound 985]
[reply] 8 µg/mL

[ask] # MSSA MIC lookup, item CS(=O)(=O)c1ccc2nc(-c3ccccn3)c(Nc3ccc(F)cc3)n2c1 [compound 1020]
[reply] > 32 µg/mL

[ask] # MSSA MIC lookup, item N#Cc1ccc(-c2c(-c3ccccn3)nc3n2CCC3)cn1 [compound 1075]
[reply] > 32 µg/mL

###

test: Rat hepatocyte intrinsic clearance; assay type: in vitro ADME; settings: rat hepatocytes, NEU; read-out: Rat Hep CLint (NEU)
ENDPOINT LABEL: hepatocyte CLint (µL/min/1e6 cells)

I. c1cncc(-c2nc3n(c2-c2ccc4occc4c2)CCC3)c1
II. COc1ccn2c(Nc3ccccc3F)c(-c3cnn(C)c3)nc2c1
III. c1ccc(-c2nc3n(c2-c2ccc4occc4c2)CCC3)nc1
IV. Fc1ccc(Nc2c(-c3ccccn3)nc3ccccn23)cc1
[ask] Ordering criterion: hepatocyte CLint; begin with the maximum. Ranked list of labels, please, in the requested order.
[reply] IV, II, I, III

###

system: Staphylococcus aureus NCTC 13373 (mecA-positive; methicillin-resistant); assay: In vitro antibacterial activity, MIC (UCL School of Pharmacy assay), MRSA; type: cell-based; conditions: Staphylococcus aureus, UCL; read-out: MRSA MIC (UCL)
ENDPOINT LABEL: MIC (µg/mL)

Below: 3 molecules and their reported MIC.
[[record]]
molecule = "c1ccc(-c2nc3n(c2-c2ccc4sc5ccccc5c4c2)CCC3)nc1 [OSA_000831]"
value_unit = "µg/mL"
meas_value = 8

[[record]]
molecule = "Clc1ccc(-c2c(-c3ccccn3)nc3n2CCC3)cc1 [OSA_000875]"
value_unit = "µg/mL"
meas_value = 4

[[record]]
molecule = "FC(F)(F)Oc1ccc(-c2c(-c3ccccn3)nc3n2CCC3)cc1 [OSA_000868]"
value_unit = "µg/mL"
meas_value = 8


A. Clc1ccc(-c2c(-c3ccccn3)nc3n2CCC3)cc1Cl [OSA_000876]
B. Cc1ccc(-c2c(-c3ccccn3)nc3ccccn23)cc1 [OSA_001018]
[ask] Which record shows the lower MIC: the first, A , or the second, B ? Lab note: record the label of whichever item you select.
[reply] B

###

assay: in vitro; assay type: cell-based; details: human
ENDPOINT LABEL: CC50 at 20 h (µg/mL)
Write the answer as a number in µg/mL, unit excluded.

[ask] # CC50 at 20 h lookup, item CC/C(=C(\c1ccccc1)c1ccc(OCCN(C)C)cc1)c1ccccc1 [tamoxifen, reference compound]
[reply] 9

###

assay: Human plasma protein binding (PPB); format: in vitro ADME; details: human, plasma, human plasma, NEU; read-out: Human PPB (NEU) (converted)
ENDPOINT LABEL: fraction unbound

[[record]]
molecule = "Cc1ccc(-c2c(-c3ccccn3)nc3ccccn23)cc1 [OSA_001018]"
endpoint_label = "fraction unbound"
meas_value = 0.011


A. CN(c1ccc(F)cc1)c1c(-c2ccccn2)nc2cccc(F)n12 [OSA_001005]
B. c1ccc(-c2nc3n(c2-c2ccc4sc5ccccc5c4c2)CCC3)nc1 [OSA_000831]
C. Cc1ccc(-c2c(-c3ccccn3)nc3cc(Cl)ccn23)cc1 [OSA_000978]
D. Cc1cccc(-c2c(-c3ccccn3)nc3n2CCC3)c1 [OSA_000976]
E. N#Cc1ccc(-c2c(-c3ccccn3)nc3n2CCC3)cc1 [OSA_000975]
[ask] Task field, ranking: reported fraction unbound, descending order. Ranked list of labels, please, in the requested order.
[reply] E, D, A, C, B

a. FC(F)(F)Oc1ccc(-c2c(-c3ccccn3)nc3n2CCC3)cc1 [OSA_000868]
b. CCN(CC)c1ccc(-c2c(-c3ccccn3)nc3ccccn23)cc1 [OSA_001011]
c. Cc1ccc(-c2c(-c3ccccn3)nc3n2CCC3)cc1 [OSA_000865]
d. c1ccc(-c2nc3ccccn3c2-c2ccc3sccc3c2)nc1 [OSA_000871]
e. N#Cc1cccc(-c2c(-c3ccccn3)nc3n2CCC3)c1 [OSA_000864]
[ask] Task field, ranking: reported fraction unbound, descending order. Ranked list of labels, please, in the requested order.
[reply] e, c, a, d, b

P. Cc1ccc(Nc2c(-c3ccccn3)nc3ccccn23)cc1 [OSA_000988]
Q. COc1ccn2c(-c3ccc(F)cc3)c(-c3ccccn3)nc2c1 [OSA_000858]
R. c1ccc(-c2nc3n(c2-c2ccc4occc4c2)CCC3)cc1 [OSA_000869]
[ask] Could you please order the items by fraction unbound, going from the lowest number to the highest? Ranked list of labels, please, in the requested order.
[reply] R, P, Q
